system: T47D; assay: Cytotoxicity against human T47D cells assessed as growth inhibition at 10 uM after 48 hrs by SRB assay relative to control; type: functional; settings: read-out: GI
Let's look at some compounds and their measured inhibition of growth at 10 µM.

SMILES_REPRESENTATION	inhibition of growth at 10 µM
O=c1oc2cc(N3CCOCC3)ccc2cc1-c1nc2ccccc2[nH]1	< 20%
NCCNc1ccc2cc(-c3nc4ccccc4[nH]3)c(=O)oc2c1	< 20%

Now examine the next entry.
Asked: Looking for the measured inhibition of growth at 10 µM of `O=c1oc2cc(NCCN3CCOCC3)ccc2cc1-c1nc2ccccc2[nH]1` , can you help?
Given back: < 20%

====

Let's look at some compounds and their measured inhibition of growth at 10 µM.
test system: RPMI-8226; experiment: Cytotoxicity against human RPMI8226 cells assessed as growth inhibition at 10 uM after 48 hrs by SRB assay relative to control; assay type: functional; settings: RPMI-8226, 48 h, read-out: GI

# example entries with known answers
SMILES_REPRESENTATION	STUDY_SYSTEM	RESULT
O=c1oc2cc(NCCN3CCOCC3)ccc2cc1-c1nc2ccccc2[nH]1	RPMI-8226	< 20%
O=c1oc2cc(N3CCOCC3)ccc2cc1-c1nc2ccccc2[nH]1	RPMI-8226	< 20%

Asked: Form: Entry = `O=c1oc2cc(Br)ccc2cc1-c1nc2ccccc2[nH]1` | System = RPMI-8226 | inhibition of growth at 10 µM = ____
Given back: < 20%
